# Study system: T1, human MSLN-FL-his protein (human, UniProt Q13421 296-580)
# T1 construct: made in HEK293E cells, purified on nickel column; also called hMSLN-FL-his; human MSLN full-length protein; not shown: His tag
# T1 sequence (Q13421 other isoform, or with tags, fused parts or gaps): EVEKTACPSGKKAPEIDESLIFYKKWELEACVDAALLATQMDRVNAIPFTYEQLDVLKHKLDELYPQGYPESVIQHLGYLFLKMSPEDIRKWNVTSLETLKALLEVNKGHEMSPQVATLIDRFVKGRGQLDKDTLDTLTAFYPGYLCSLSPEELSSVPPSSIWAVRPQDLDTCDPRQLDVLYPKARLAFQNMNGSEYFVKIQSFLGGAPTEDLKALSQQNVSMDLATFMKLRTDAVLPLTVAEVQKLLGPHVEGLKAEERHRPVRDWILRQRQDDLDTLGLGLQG
# Protocol details: SPR (Biacore), antibody captured on Protein A chip;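 also: measured at 25 °C, analyte injected 240 s in five twofold dilutions from 200 nM, dissociation up to 600 s, double-referenced, fitted with Langmuir 1:1 model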
Kind request: treat 40000 M⁻¹ s⁻¹ as inclusive, so kon at 40000 M⁻¹ s⁻¹ or higher is satisfied, anything lower is not satisfied.

Binder: S009-F2.13.3 (antibody, human IgG1, kappa, V domains shown, human-murine chimeric antibody, human IgG1/kappa constant regions) VH: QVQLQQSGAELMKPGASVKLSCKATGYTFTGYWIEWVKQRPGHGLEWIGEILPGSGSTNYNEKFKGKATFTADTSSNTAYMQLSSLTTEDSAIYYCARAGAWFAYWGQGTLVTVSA VL: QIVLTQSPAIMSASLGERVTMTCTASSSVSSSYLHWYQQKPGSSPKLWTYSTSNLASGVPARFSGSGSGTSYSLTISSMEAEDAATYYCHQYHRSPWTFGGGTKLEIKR
Label: satisfied
--
Binder: S009-F2.58.8 (antibody, human IgG1, kappa, V domains shown, human-murine chimeric antibody, human IgG1/kappa constant regions) VH: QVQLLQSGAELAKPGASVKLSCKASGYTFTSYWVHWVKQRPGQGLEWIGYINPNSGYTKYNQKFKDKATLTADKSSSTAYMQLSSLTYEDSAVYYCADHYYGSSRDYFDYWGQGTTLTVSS VL: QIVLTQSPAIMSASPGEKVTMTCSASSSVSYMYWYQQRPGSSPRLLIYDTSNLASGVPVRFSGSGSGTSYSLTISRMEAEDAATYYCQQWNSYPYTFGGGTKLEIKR
Label: satisfied
--
Binder: S009-F6-62.5 (antibody, human IgG1, kappa, V domains shown, human-murine chimeric antibody, human IgG1/kappa constant regions) VH: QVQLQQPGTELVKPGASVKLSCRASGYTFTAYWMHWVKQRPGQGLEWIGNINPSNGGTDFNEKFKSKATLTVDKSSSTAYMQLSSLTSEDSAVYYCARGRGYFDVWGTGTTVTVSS VL: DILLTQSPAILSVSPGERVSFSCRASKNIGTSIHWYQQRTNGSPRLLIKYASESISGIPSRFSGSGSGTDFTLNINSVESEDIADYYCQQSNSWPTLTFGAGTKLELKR
Label: satisfied
--
Binder: S009-F1.59.1 (antibody, human IgG1, kappa, V domains shown, human-murine chimeric antibody, human IgG1/kappa constant regions) VH: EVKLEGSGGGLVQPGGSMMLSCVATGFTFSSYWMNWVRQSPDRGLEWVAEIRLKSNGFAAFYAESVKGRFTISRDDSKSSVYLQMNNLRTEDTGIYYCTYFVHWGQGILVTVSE VL: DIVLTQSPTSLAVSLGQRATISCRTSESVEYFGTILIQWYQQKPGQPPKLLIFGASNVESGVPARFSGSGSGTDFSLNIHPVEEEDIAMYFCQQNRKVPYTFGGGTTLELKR
Label: not satisfied

Each recorded value in this set is attributed to patent US20250250357A1.
